- PROTOCOL SUMMARY: Drug recovery in human urine at 100 to 800 mg
- Assay type: ADME
- CONDITION SET: read-out: Drug recovery
RESULT TYPE: dose excreted (%)

> print(dat)
                                   molecule  measurement.units  measured
1  CC(C)OC(=O)[C@H](C)N[P@](=O)(OC[C@H]1O[C@@H](n2ccc(=O)[nH]c2=O)[C@](C)(F)[C@@H]1O)Oc1ccccc1 [SOFOSBUVIR]                  %       3.5

====

Listing of recorded pEC50 by entry.
- Test system: Ebolavirus
- PROTOCOL SUMMARY: Antiviral activity against Ebolavirus infected in human HuH7 cells after 3 days by end point dilution assay
- Assay type: functional, cell-based
- CONDITION SET: Orthoebolavirus, Huh-7, 72 h
pEC50: −log10 of the molar value.
RESULT TYPE: pEC50

> print(dat)
                                   molecule  measured
1  CCC(CC)COC(=O)[C@H](C)N[P@](=O)(OC[C@H]1O[C@@](C#N)(c2ccc3c(N)ncnn23)[C@H](O)[C@@H]1O)Oc1ccccc1      7.15
2  N#C[C@@]1(c2ccc3c(N)ncnn23)O[C@H](CO)[C@@H](O)[C@H]1O [GS-441524]      5.82
